- System: Burkitt's lymphoma (CA 46, ATCC No. CRL 1648)
- assay-overview: Inhibition of tumor cell growth, MTT-assay, Burkitt's lymphoma
- Format: cell-based, human
- condition-description: Homo sapiens, CA46, Table 1, 72 hours, read-out: IC50 Burkitts
measured-metric: pIC50
Reminder that pIC50 is minus the log10 of a molar concentration.

pIC50 reading for "CC(=NNc1nc2ccccc2[nH]1)c1ccccn1" : 7.36

###

Attribute: Mean IC70
- System: human tumor grafts (cell lines of FIG. 1)
- assay-overview: Colony forming assay (two-layer soft agar)
- Format: cell-based
- condition-description: mean values of all cell lines tested in FIG. 1; continuous exposure 3 to 6 days

Here's what some known entries look like.
>>> assay_result("CC(=NNc1nc2ccccc2n1C)c1cc(C)ccn1 [Id-8]")
"0.317 µM"
>>> assay_result("COc1ccnc(C(C)=NNc2nc3ccccc3n2C)c1 [Id-2]")
"0.261 µM"
>>> assay_result("CC(=NNc1nc2ccccc2n1C)c1ccc(C)cn1 [Id-9]")
"0.560 µM"
>>> assay_result("CCCC(=NNc1nc2ccccc2n1C)c1ccccn1 [Ia-12]")
"0.603 µM"
>>> assay_result("CC(=NNc1nc2ccccc2n1C(C)C)c1ccccn1 [Ic-3]")
"0.750 µM"

Mean IC70 reading for CC(=NNc1nc2ccccc2n1C)c1cc(Cl)ccn1 [Id-4] : 0.956 µM

Mean IC70 reading for CC(=NNc1nc2ccccc2n1C)c1cccc(Cl)n1 [Id-5] : 5.740 µM

Mean IC70 reading for Cn1c(NN=C(c2ccccn2)C2CC2)nc2ccccc21 [Ia-24] : 0.387 µM

Mean IC70 reading for CC(=NNc1nc2ccccc2n1C)c1ncccc1N(C)C [Id-11] : 0.397 µM

Mean IC70 reading for CC(=NNc1nc2ccccc2n1C)c1cc(-c2ccccc2)ccn1 [Id-15] : 1.017 µM

###

- Tested on: HeLa (epitheloid cervix carcinoma)
- assay-overview: Inhibition of tumor cell growth, SRB-assay, HeLa
- Assay type: cell-based, human
- condition-description: Table 2, 72 hours, read-out: IC50 HeLa (converted)
Attribute: log10(IC50)
Would you kindly interpret these values as log10 of IC50 expressed in nM?

log10(IC50) reading for "CC(=NNc1nc2ccccc2o1)c1cnc(C)cn1" : 2.57

log10(IC50) reading for "CC(=NNc1nc2ccccc2[nH]1)c1cccnn1" : 3.09

log10(IC50) reading for "CC(=NNc1nc2ccccc2o1)c1cc2ccccc2cn1" : 1.80

log10(IC50) reading for "CC(=NNc1nc2ccccc2[nH]1)c1ncccn1" : 2.80

log10(IC50) reading for "CC(=NNc1nc2ccccc2o1)c1nccc2ccccc12" : 2.53

log10(IC50) reading for "CC(=NNc1nc2ccccc2o1)c1cccnn1" : 3.10

###

- Tested on: K562 (chronic myelogenous leukemia)
- assay-overview: Inhibition of tumor cell growth, K562
- Type: cell-based, human
- condition-description: Table 1; 72 hours
measured-metric: pIC50
Reminder that pIC50 is minus the log10 of a molar concentration.

Here's what some known entries look like.
>>> assay_result("Cn1c(NN=C(c2ccccn2)C(C)(C)C)nc2ccccc21 [Ia-20]")
5.77
>>> assay_result("CC(C)C(=NNc1nc2ccccc2n1C)c1ccccn1 [Ia-16]")
7.30
>>> assay_result("CCCC(=NNc1nc2ccccc2n1C)c1ccccn1 [Ia-12]")
7.10
>>> assay_result("Cn1c(NN=C(Cc2ccccc2)c2ccccn2)nc2ccccc21 [Ia-33]")
6.92
>>> assay_result("Cn1c(NN=C(c2ccccn2)C2CC2)nc2ccccc21 [Ia-24]")
7.40
>>> assay_result("Cn1c(NN=C(c2ccccc2)c2ccccn2)nc2ccccc21 [Ia-29]")
7.22
>>> assay_result("CCC(=NNc1nc2ccccc2n1C)c1ccccn1 [Ia-8]")
7.05

We now examine a further compound.
pIC50 reading for Cn1c(NN=C(c2ccccn2)c2ccccn2)nc2ccccc21 [Ia-37] : 7.52
